FYI, the data here is from the supplement of paper PMC5998384.

tested on: HeLa Kyoto; experiment: solubility change mitosis vs G1/S (difference of NP-40 vs SDS log2 ratios) (log2 ratio difference); higher = more soluble in mitosis
Note to self: values exactly at -0.06 are met. So solubility change mitosis (log2) at or above -0.06 is met, below is not met.

Completed entries (count: 5):
substance: MAGQHLPVPRLEGVSREQFMQHLYPQRKPLVLEGIDLGPCTSKWTVDYLSQVGGKKEVKIHVAAVAQMDFISKNFVYRTLPFDQLVQRAAEEKHKEFFVSEDEKYYLRSLGEDPRKDVADIRKQFPLLKGDIKFPEFFKEEQFFSSVFRISSPGLQLWTHYDVMDNLLIQVTGKKRVVLFSPRDAQYLYLKGTKSEVLNIDNPDLAKYPLFSKARRYECSLEAGDVLFIPALWFHNVISEEFGVGVNIFWKHLPSECYDKTDTYGNKDPTAASRAAQILDRALKTLAELPEEYRDFYARRMVLHIQDKAYSKNSE [TYW5]
class-label: not met
--
substance: RALGAPB
class-label: not met
--
substance: MNAARTGYRVFSANSTAACTELAKRITERLGAELGKSVVYQETNGETRVEIKESVRGQDIFIIQTIPRDVNTAVMELLIMAYALKTACARNIIGVIPYFPYSKQSKMRKRGSIVCKLLASMLAKAGLTHIITMDLHQKEIQGFFSFPVDNLRASPFLLQYIQEEIPNYRNAVIVAKSPDAAKRAQSYAERLRLGLAVIHGEAQCTELDMDDGRHSPPMVKNATVHPGLELPLMMAKEKPPITVVGDVGGRIAIIVDDIIDDVESFVAAAEILKERGAYKIYVMATHGILSAEAPRLIEESSVDEVVVTNTVPHEVQKLQCPKIKTVDISLILSEAIRRIHNGESMAYLFRNITVDD [PRPSAP1]
class-label: not met
--
substance: MEMGRRIHLELRNRTPSDVKELVLDNSRSNEGKLEGLTDEFEELEFLSTINVGLTSIANLPKLNKLKKLELSDNRVSGGLEVLAEKCPNLTHLNLSGNKIKDLSTIEPLKKLENLKSLDLFNCEVTNLNDYRENVFKLLPQLTYLDGYDRDDKEAPDSDAEGYVEGLDDEEEDEDEEEYDEDAQVVEDEEDEDEEEEGEEEDVSGEEEEDEEGYNDGEVDDEEDEEELGEEERGQKRKREPEDEGEDDD [ANP32A]
class-label: met
--
substance: MAATLLAARGAGPAPAWGPEAFTPDWESREVSTGTTIMAVQFDGGVVLGADSRTTTGSYIANRVTDKLTPIHDRIFCCRSGSAADTQAVADAVTYQLGFHSIELNEPPLVHTAASLFKEMCYRYREDLMAGIIIAGWDPQEGGQVYSVPMGGMMVRQSFAIGGSGSSYIYGYVDATYREGMTKEECLQFTANALALAMERDGSSGGVIRLAAIAESGVERQVLLGDQIPKFAVATLPPA [PSMB6]
class-label: not met

stdin: Hi, just wondering whether MAAYSYRPGPGAGPGPAAGAALPDQSFLWNVFQRVDKDRSGVISDTELQQALSNGTWTPFNPVTVRSIISMFDRENKAGVNFSEFTGVWKYITDWQNVFRTYDRDNSGMIDKNELKQALSGFGYRLSDQFHDILIRKFDRQGRGQIAFDDFIQGCIVLQRLTDIFRRYDTDQDGWIQVSYEQYLSMVFSIV [PDCD6] shows solubility change mitosis (log2) of -0.06 or higher.
stdout: met

stdin: Hi, just wondering whether MKAGATSMWASCCGLLNEVMGTGAVRGQQSAFAGATGPFRFTPNPEFSTYPPAATEGPNIVCKACGLSFSVFRKKHVCCDCKKDFCSVCSVLQENLRRCSTCHLLQETAFQRPQLMRLKVKDLRQYLILRNIPIDTCREKEDLVDLVLCHHGLGSEDDMDTSSLNSSRSQTSSFFTRSFFSNYTAPSATMSSFQGELMDGDQTSRSGVPAQVQSEITSANTEDDDDDDDEDDDDEEENAEDRNPGLSKERVRASLSDLSSLDDVEGMSVRQLKEILARNFVNYSGCCEKWELVEKVNRLYKENEENQKSYGERLQLQDEEDDSLCRICMDAVIDCVLLECGHMVTCTKCGKRMSECPICRQYVVRAVHVFKS [RNF34] shows solubility change mitosis (log2) of -0.06 or higher.
stdout: met

stdin: Hi, just wondering whether METMRAQRLQPGVGTSGRGTLRALRPGVTGAAAATATPPAGPPPAPPPPAPPPPPLLLSGAPGLPLPPGAAGSPAVLREAVEAVVRSFAKHTQGYGRVNVVEALQEFWQMKQSRGADLKNGALVVYEMVPSNSPPYVCYVTLPGGSCFGSFQFCPTKAEARRSAAKIALMNSVFNEHPSRRITDEFIEKSVSEALASFNGNREEADNPNTGIGAFRFMLESNKGKSMLEFQELMTVFQLLHWNGSLKAMRERQCSRQEVLAHYSHRALDDDIRHQMALDWVSREQSVPGALSRELASTERELDEARLAGKELRFHKEKKDILVLAAGQLGNMHSSNC [LIX1L] shows solubility change mitosis (log2) of -0.06 or higher.
stdout: not met

stdin: Hi, just wondering whether MKPDETPMFDPSLLKEVDWSQNTATFSPAISPTHPGEGLVLRPLCTADLNRGFFKVLGQLTETGVVSPEQFMKSFEHMKKSGDYYVTVVEDVTLGQIVATATLIIEHKFIHSCAKRGRVEDVVVSDECRGKQLGKLLLSTLTLLSKKLNCYKITLECLPQNVGFYKKFGYTVSEENYMCRRFLK [GNPNAT1] shows solubility change mitosis (log2) of -0.06 or higher.
stdout: not met

stdin: Hi, just wondering whether MNRLPDDYDPYAVEEPSDEEPALSSSEDEVDVLLHGTPDQKRKLIRECLTGESESSSEDEFEKEMEAELNSTMKTMEDKLSSLGTGSSSGNGKVATAPTRYYDDIYFDSDSEDEDRAVQVTKKKKKKQHKIPTNDELLYDPEKDNRDQAWVDAQRRGYHGLGPQRSRQQQPVPNSDAVLNCPACMTTLCLDCQRHESYKTQYRAMFVMNCSINKEEVLRYKASENRKKRRVHKKMRSNREDAAEKAETDVEEIYHPVMCTECSTEVAVYDKDEVFHFFNVLASHS [EAPP] shows solubility change mitosis (log2) of -0.06 or higher.
stdout: met

stdin: Hi, just wondering whether MGAAGSSALARFVLLAQSRPGWLGVAALGLTAVALGAVAWRRAWPTRRRRLLQQVGTVAQLWIYPVKSCKGVPVSEAECTAMGLRSGNLRDRFWLVINQEGNMVTARQEPRLVLISLTCDGDTLTLSAAYTKDLLLPIKTPTTNAVHKCRVHGLEIEGRDCGEATAQWITSFLKSQPYRLVHFEPHMRPRRPHQIADLFRPKDQIAYSDTSPFLILSEASLADLNSRLEKKVKATNFRPNIVISGCDVYAEDSWDELLIGDVELKRVMACSRCILTTVDPDTGVMSRKEPLETLKSYRQCDPSERKLYGKSPLFGQYFVLENPGTIKVGDPVYLLGQ [MARC1] shows solubility change mitosis (log2) of -0.06 or higher.
stdout: not met

###

Reported melting temperature values are given for each entry in this list.
system: HeLa Kyoto; experiment: melting temperature (median over replicates), in situ; higher = more thermally stable; conditions: cell cycle stage: mitosis
Record the result as number plus unit.

Examples with their reported melting temperature follow.
residue-codes: MALVASVRVPARVLLRAGARLPGAALGRTERAAGGGDGARRFGSQRVLVEPDAGAGVAVMKFKNPPVNSLSLEFLTELVISLEKLENDKSFRGVILTSDRPGVFSAGLDLTEMCGRSPAHYAGYWKAVQELWLRLYQSNLVLVSAINGACPAGGCLVALTCDYRILADNPRYCIGLNETQLGIIAPFWLKDTLENTIGHRAAERALQLGLLFPPAEALQVGIVDQVVPEEQVQSTALSAIAQWMAIPDHARQLTKAMMRKATASRLVTQRDADVQNFVSFISKDSIQKSLQMYLERLKEEKG [ECI1]
observation-type: melting temperature
result: 58.4 °C

residue-codes: MVAPVWYLVAAALLVGFILFLTRSRGRAASAGQEPLHNEELAGAGRVAQPGPLEPEEPRAGGRPRRRRDLGSRLQAQRRAQRVAWAEADENEEEAVILAQEEEGVEKPAETHLSGKIGAKKLRKLEEKQARKAQREAEEAEREERKRLESQREAEWKKEEERLRLEEEQKEEEERKAREEQAQREHEEYLKLKEAFVVEEEGVGETMTEEQSQSFLTEFINYIKQSKVVLLEDLASQVGLRTQDTINRIQDLLAEGTITGVIDDRGKFIYITPEELAAVANFIRQRGRVSIAELAQASNSLIAWGRESPAQAPA [DDRGK1]
observation-type: melting temperature
result: 52.9 °C

residue-codes: MPHIDNDVKLDFKDVLLRPKRSTLKSRSEVDLTRSFSFRNSKQTYSGVPIIAANMDTVGTFEMAKVLCKFSLFTAVHKHYSLVQWQEFAGQNPDCLEHLAASSGTGSSDFEQLEQILEAIPQVKYICLDVANGYSEHFVEFVKDVRKRFPQHTIMAGNVVTGEMVEELILSGADIIKVGIGPGSVCTTRKKTGVGYPQLSAVMECADAAHGLKGHIISDGGCSCPGDVAKAFGAGADFVMLGGMLAGHSESGGELIERDGKKYKLFYGMSSEMAMKKYAGGVAEYRASEGKTVEVPFKGDVEHTIRDILGGIRSTCTYVGAAKLKELSRRTTFIRVTQQVNPIFSEAC [GMPR2]
observation-type: melting temperature
result: 59.4 °C

residue-codes: MAAPLRIQSDWAQALRKDEGEAWLSCHPPGKPSLYGSLTCQGIGLDGIPEVTASEGFTVNEINKKSIHISCPKENASSKFLAPYTTFSRIHTKSITCLDISSRGGLGVSSSTDGTMKIWQASNGELRRVLEGHVFDVNCCRFFPSGLVVLSGGMDAQLKIWSAEDASCVVTFKGHKGGILDTAIVDRGRNVVSASRDGTARLWDCGRSACLGVLADCGSSINGVAVGAADNSINLGSPEQMPSEREVGTEAKMLLLAREDKKLQCLGLQSRQLVFLFIGSDAFNCCTFLSGFLLLAGTQDGNIYQLDVRSPRAPVQVIHRSGAPVLSLLSVRDGFIASQGDGSCFIVQQDLDYVTELTGADCDPVYKVATWEKQIYTCCRDGLVRRYQLSDL [PAAF1]
observation-type: melting temperature
result: 53.9 °C

Shifting focus to the sequence that follows.
Measured melting temperature of MSRPRKRLAGTSGSDKGLSGKRTKTENSGEALAKVEDSNPQKTSATKNCLKNLSSHWLMKSEPESRLEKGVDVKFSIEDLKAQPKQTTCWDGVRNYQARNFLRAMKLGEEAFFYHSNCKEPGIAGLMKIVKEAYPDHTQFEKNNPHYDPSSKEDNPKWSMVDVQFVRMMKRFIPLAELKSYHQAHKATGGPLKNMVLFTRQRLSIQPLTQEEFDFVLSLEEKEPS [THYN1] : 51.3 °C
